Recorded composite z-score, one value per entry.
Target: Torsin-1A (Homo sapiens) (UniProt O14656)
Sequence (O14656 whole entry, looked up): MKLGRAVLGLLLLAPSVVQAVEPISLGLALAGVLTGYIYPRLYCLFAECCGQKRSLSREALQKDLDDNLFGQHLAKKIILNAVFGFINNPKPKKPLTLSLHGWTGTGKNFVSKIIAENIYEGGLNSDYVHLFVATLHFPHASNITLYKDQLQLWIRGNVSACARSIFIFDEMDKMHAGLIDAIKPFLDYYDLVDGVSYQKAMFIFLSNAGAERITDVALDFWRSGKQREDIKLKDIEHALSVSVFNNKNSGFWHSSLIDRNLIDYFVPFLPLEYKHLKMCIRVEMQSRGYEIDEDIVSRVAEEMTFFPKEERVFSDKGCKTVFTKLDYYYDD
Experiment: torsin A mutant lysate binding on microarrays – cell lysate, small-molecule microarray, COS7 lysate, 635/667 nm fluorescence, primary screen (AID 1150);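 further: score pools 667 nm emission and signal to noise measuring lysate protein binding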
Conditions: COS7 hTOR1A mutant lysate, 635 nm fluorescence, higher = more signal

[
  {
    "chemicalStructure": "COC(=O)[C@@]1(Cc2ccc(OC)cc2)[C@H]2c3cc(C(=O)N4CCCC4)n(Cc4ccc(Cl)c(C(F)(F)F)c4)c3C[C@H]2CN1C(=O)c1ccccc1",
    "composite z-score": 1.28
  },
  {
    "chemicalStructure": "COC(=O)[C@@]1(Cc2ccc(F)cc2)[C@H]2c3cc(C(=O)N4CCCC4)n(Cc4cc(F)cc5c4OCOC5)c3C[C@H]2CN1C(=O)c1ccccc1",
    "composite z-score": -0.212
  },
  {
    "chemicalStructure": "O=C1C[C@@](C(=O)NC2CC2)(c2ccc([N+](=O)[O-])cc2)[C@@H](c2ccc(CO)cc2)N1C1CCCCC1",
    "composite z-score": 0.466
  },
  {
    "chemicalStructure": "[N-]=[N+]=Nc1ccccc1[C@@H]1OC(c2ccc(OCCCO)cc2)=N[C@]1(Cc1ccccc1)C(=O)NCCN1CCOCC1",
    "composite z-score": 1.25
  },
  {
    "chemicalStructure": "Cc1ccc(S[C@]2(C(=O)NCCCN(C)C)CC(=O)N(C3Cc4ccccc4C3)[C@@H]2c2ccc(CO)cc2I)cc1",
    "composite z-score": -1.04
  },
  {
    "chemicalStructure": "CC(=O)NCCCC[C@@H]1NC(=O)[C@H]2C[C@@H](C(=O)NCCCCCCNC(=O)CS)[C@@H](c3cccc(OCCO)c3)N2C1=O",
    "composite z-score": 1.22
  },
  {
    "chemicalStructure": "CCCN1C(=O)[C@]2(CCC(=O)OC(C)(C)C)N=C(c3ccc(OCCCO)cc3)O[C@@H]2c2ccccc21",
    "composite z-score": 0.111
  },
  {
    "chemicalStructure": "C[C@@H]1ON(c2ccccc2)[C@H](c2ccccc2)[C@H]1C(=O)O",
    "composite z-score": -0.115
  },
  {
    "chemicalStructure": "COC(=O)[C@@]1(Cc2ccccc2)[C@H]2c3cc(C(=O)N4CCCC4)n(Cc4ccc(OC)c(OC)c4)c3C[C@H]2CN1C(=O)c1ccccc1",
    "composite z-score": 1.18
  },
  {
    "chemicalStructure": "CN(C)CCCC[C@@H]1NC(=O)[C@H]2C[C@@H](C(=O)O)[C@@H](c3ccc(O)cc3)N2C1=O",
    "composite z-score": 3.27
  },
  {
    "chemicalStructure": "O=C(NCc1ccccc1)[C@@H]1c2ccccc2C(=O)N(Cc2cc(C(F)(F)F)cc(C(F)(F)F)c2)[C@H]1c1ccc(CO)cc1",
    "composite z-score": 0.759
  },
  {
    "chemicalStructure": "O=C(N1CCOCC1)[C@@]1(Cc2ccccc2)COC(c2ccc(OCCCO)cc2)=N1",
    "composite z-score": 1.02
  },
  {
    "chemicalStructure": "CO[C@H]1O[C@H](CO)[C@@H](OC(=O)Nc2ccccc2)[C@H](OC(=O)Nc2ccccc2)[C@H]1OC(=O)Nc1ccccc1",
    "composite z-score": 1.07
  },
  {
    "chemicalStructure": "CCOC(=O)C[C@H]1[C@H](OC(=O)c2cc3ccccc3oc2=O)[C@@H](NC(=O)CC(C)C)c2cc(OCCCO)ccc2N1C(=O)Cc1ccc(OC)cc1",
    "composite z-score": 0.304
  },
  {
    "chemicalStructure": "COCCOC(=O)N1C(=O)[C@@]2(c3cc(C#CC4(O)CCCCCC4)ccc31)[C@H](c1ccc(O)cc1)N1[C@H](c3ccccc3)[C@H](c3ccccc3)OC(=O)[C@H]1[C@@H]2C(=O)N1CCCCCCC1",
    "composite z-score": 0.275
  }
]
